measurement_target: Farnesyltransferase (FTase) (Bos taurus, UniProt P29702+P49355)
Construct: precipitation from a beef brain homogenate; from tissue; host or cells: bovine brain
Sequence (P49355 whole entry, one chain of several): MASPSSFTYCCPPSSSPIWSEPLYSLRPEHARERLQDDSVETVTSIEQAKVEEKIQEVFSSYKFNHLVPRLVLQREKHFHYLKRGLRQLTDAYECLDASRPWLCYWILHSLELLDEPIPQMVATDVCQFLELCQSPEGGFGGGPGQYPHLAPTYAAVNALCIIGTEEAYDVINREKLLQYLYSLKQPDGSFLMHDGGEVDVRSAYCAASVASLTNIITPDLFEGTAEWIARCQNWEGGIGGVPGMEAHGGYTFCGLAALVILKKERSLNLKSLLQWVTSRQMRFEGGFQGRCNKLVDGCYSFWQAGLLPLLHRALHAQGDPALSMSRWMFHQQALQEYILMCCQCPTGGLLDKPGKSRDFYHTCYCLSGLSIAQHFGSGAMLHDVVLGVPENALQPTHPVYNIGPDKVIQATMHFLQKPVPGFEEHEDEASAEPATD
protocol_summary: Farnesyltransferase inhibition (scintillation proximity assay, [3H]-FPP / biotin-K-ras peptide)
Assay type: biochemical, bovine
condition_summary: compound at 10^−6 M; bovine FTase, 37° C., 30 minutes
Counter-ions that a name gives are not always drawn.
value_kind: inhibition at 1 µM (%)

INSERT INTO assay_data (compound, measured_value) VALUES
  ('CC(=O)Nc1ccc(CNC(c2ccc(C#N)c(-c3cccc4ccccc34)c2)c2cncn2C)cc1 (centres unmarked) [Example 53, dihydrochloride]', 100),
  ('Cc1ccccc1-c1cc(C(OCc2ccccc2Br)c2cncn2C)ccc1C#N (centres unmarked) [Example 185, hydrochloride]', 85),
  ('Cn1cncc1CN(Cc1ccc(C#N)cc1)Cc1ccc(C#N)c(-c2cccc3cccnc23)c1', 99),
  ('Cc1ccc(COC(c2ccc(C#N)c(-c3ccccc3C)c2)c2cncn2C)cc1C (centres unmarked) [Example 154, hydrochloride]', 95),
  ('CCOC(=O)N1CCC(N(Cc2ccc(C#N)c(-c3cccc4ccccc34)c2)Cc2cncn2C)CC1', 93),
  ('Cc1ccccc1-c1cc(CNc2cccnc2)ccc1C#N', 10),
  ('COc1ccccc1-c1cc(C(OCc2ccccc2)c2cncn2C)ccc1C#N (centres unmarked) [Example 5, hydrochloride]', 91),
  ('Cc1ccccc1-c1cc(C(OCc2ccc(C(C)C)cc2)c2cncn2C)ccc1C#N (centres unmarked) [Example 153, hydrochloride]', 92);

----------
measurement_target: Farnesyltransferase (FTase) (Bos taurus, UniProt P29702+P49355)
Construct: precipitation from a beef brain homogenate; from tissue; host or cells: bovine brain
protocol_summary: Farnesyltransferase inhibition (scintillation proximity assay, [3H]-FPP / biotin-K-ras peptide)
Format: biochemical, bovine
condition_summary: compound at 10^−6 M; bovine FTase, 37° C., 30 minutes
Where a name gives a salt, the structure may show the parent alone.
value_kind: inhibition at 1 µM (%)

INSERT INTO measurements (compound, value_kind, units_of_measure, measured_value) VALUES
  ('Cn1cncc1CN(Cc1cccc(C#N)c1)c1ccc(C#N)c(-c2cccc3ccccc23)c1 [Example 266]', 'inhibition at 1 µM', '%', 100),
  ('Cn1cncc1C(OCc1ccc(C#N)cc1)c1ccc(C#N)c(-c2cccc3cccnc23)c1 (stereo not shown) [Example 18, dihydrochloride]', 'inhibition at 1 µM', '%', 100),
  ('Cc1ccccc1-c1cc(C(OCc2ccccc2)c2cncs2)ccc1C#N (stereo not shown) [Example 213, hydrochloride]', 'inhibition at 1 µM', '%', 41),
  ('Cn1cncc1C(OCc1ccccc1)c1ccc(C#N)c(-c2ccc3c4c(cccc24)CC3)c1 (stereo not shown) [Example 9, hydrochloride]', 'inhibition at 1 µM', '%', 64),
  ('Cc1ccccc1-c1cc(C(OCc2ccc(C#N)cc2)c2cncn2C)ccc1C#N (stereo not shown) [Example 116, hydrochloride]', 'inhibition at 1 µM', '%', 99),
  ('Cc1ccccc1-c1cc(C(OCc2cccc(Br)c2)c2cncn2C)ccc1C#N (stereo not shown) [Example 184, hydrochloride]', 'inhibition at 1 µM', '%', 95),
  ('Cc1ccccc1-c1cc(N(Cc2ccccc2)Cc2cccnc2)ccc1C#N [Example 217]', 'inhibition at 1 µM', '%', 71);

----------
measurement_target: Farnesyltransferase (FTase) (Bos taurus, UniProt P29702+P49355)
Construct: precipitation from a beef brain homogenate; from tissue; host or cells: bovine brain
protocol_summary: Farnesyltransferase inhibition (scintillation proximity assay, [3H]-FPP / biotin-K-ras peptide)
Assay type: biochemical, bovine
condition_summary: compound at 10^−6 M; bovine FTase, 37° C., 30 minutes
Counter-ions that a name gives are not always drawn.
value_kind: inhibition at 1 µM (%)

INSERT INTO assay_data (compound, units_of_measure, measured_value) VALUES
  ('Cc1ccc(-c2cc(C(OCc3ccccc3)c3cncn3C)ccc2C#N)cc1 (stereo not drawn) [Example 93, hydrochloride]', '%', 58),
  ('Cc1ccccc1-c1cc(C(OCc2csc(-c3ccc(C(F)(F)F)cc3)n2)c2cncn2C)ccc1C#N (stereo not drawn) [Example 175, hydrochloride]', '%', 75),
  ('Cn1cncc1C(OCc1ccc(C#N)cc1)c1ccc(C#N)c(-c2ccnc3ccccc23)c1 (stereo not drawn) [Example 19, dihydrochloride]', '%', 100),
  ('Cc1ccccc1-c1cc(CN(CCC2CCCCC2)Cc2cncn2C)ccc1C#N [Example 82, hydrochloride]', '%', 87),
  ('Cc1ccccc1-c1cc(C(OCc2ccc(I)cc2)c2cncn2C)ccc1C#N (stereo not drawn) [Example 160, hydrochloride]', '%', 96),
  ('Cn1cncc1C(NCc1ccc(C(N)=O)cc1)c1ccc(C#N)c(-c2cccc3ccccc23)c1 (stereo not drawn) [Example 58, dihydrochloride]', '%', 100),
  ('Cn1cncc1C(OCC1CCCCC1)c1ccc(C#N)c(-c2cccc3ccccc23)c1 (stereo not drawn) [Example 14, hydrochloride]', '%', 100),
  ('COC(=O)c1ccc(COC(c2ccc(C#N)c(-c3cccc4ccccc34)c2)c2cncn2C)cc1 (stereo not drawn) [Example 64, hydrochloride]', '%', 100),
  ('Cc1ccccc1-c1cc(C(OCc2ccc(C(F)(F)F)cc2F)c2cncn2C)ccc1C#N (stereo not drawn) [Example 187, hydrochloride]', '%', 93),
  ('Cc1ccccc1-c1cc(C(OCc2c(F)cccc2F)c2cncn2C)ccc1C#N (stereo not drawn) [Example 186, hydrochloride]', '%', 85),
  ('Cc1ccccc1-c1cc(C(O)c2cncs2)ccc1C#N (stereo not drawn) [Example 214]', '%', 20),
  ('Cn1cncc1C(NCc1ccc(C#N)cn1)c1ccc(C#N)c(-c2cccc3ccccc23)c1 (stereo not drawn) [Example 51, trihydrochloride]', '%', 100),
  ('Cn1cncc1C(OCc1ccccc1)c1ccc(C#N)c(-c2cccc(-c3ccccc3)c2)c1 (stereo not drawn) [Example 6, hydrochloride]', '%', 61),
  ('Cn1cncc1C(NCc1ccc(C(=O)O)cc1)c1ccc(C#N)c(-c2cccc3ccccc23)c1 (stereo not drawn) [Example 39]', '%', 100),
  ('Cn1cncc1C(OCc1ccc(C#N)cc1)c1ccc(C#N)c(-c2cccc(Cl)c2Cl)c1 (stereo not drawn) [Example 279, hydrochloride]', '%', 99);

----------
measurement_target: Farnesyltransferase (FTase) (Bos taurus, UniProt P29702+P49355)
Construct: precipitation from a beef brain homogenate; from tissue; host or cells: bovine brain
protocol_summary: Farnesyltransferase inhibition (scintillation proximity assay, [3H]-FPP / biotin-K-ras peptide)
Assay type: biochemical, bovine
condition_summary: compound at 10^−6 M; bovine FTase, 37° C., 30 minutes
Where a name gives a salt, the structure may show the parent alone.
value_kind: inhibition at 1 µM

INSERT INTO assay_data (compound, measured_value) VALUES
  ('Cc1ccccc1-c1cc(C(NCc2ccc(C#N)cc2)c2cncn2C)ccc1C#N (centres unmarked)', '100%'),
  ('COC(=O)c1ccc(CNC(c2ccc(C#N)c(-c3cccc4ccccc34)c2)c2cncn2C)cc1 (centres unmarked)', '100%'),
  ('Cc1ccccc1-c1cc(C(OCc2ccccc2Cl)c2cncn2C)ccc1C#N (centres unmarked) [Example 132, hydrochloride]', '94%'),
  ('COC(=O)c1cccc(COC(c2ccc(C#N)c(-c3ccccc3C)c2)c2cncn2C)c1 (centres unmarked) [Example 146, hydrochloride]', '93%'),
  ('Cc1ccccc1-c1cc(C(OCc2cnc(Cl)c(Cl)c2)c2cncn2C)ccc1C#N (centres unmarked) [Example 181, hydrochloride]', '93%'),
  ('Cn1cncc1CN(Cc1ccc(S(C)(=O)=O)cc1)Cc1ccc(C#N)c(-c2cccc3ccccc23)c1 [Example 195, dihydrochloride]', '98%'),
  ('Cc1ccccc1-c1cc(C(Cn2ccnc2)OCc2ccccc2)ccc1C#N (centres unmarked) [Example 210, hydrochloride]', '48%'),
  ('Cc1ccccc1-c1cc(C(OCc2ccc(F)cc2C(F)(F)F)c2cncn2C)ccc1C#N (centres unmarked) [Example 141, hydrochloride]', '95%'),
  ('Cc1ccccc1-c1cc(C(O)(C#Cc2ccccc2)c2cncn2C)ccc1C#N (centres unmarked)', '100%'),
  ('Cc1ccccc1-c1cc(C(OCc2ccccc2C#N)c2cncn2C)ccc1C#N (centres unmarked) [Example 126, hydrochloride]', '92%'),
  ('Cn1cncc1C(CCc1ccccc1)NCc1ccc(C#N)c(-c2cccc3ccccc23)c1 (centres unmarked) [Example 260, dihydrochloride]', '90%');

----------
measurement_target: Farnesyltransferase (FTase) (Bos taurus, UniProt P29702+P49355)
Construct: precipitation from a beef brain homogenate; from tissue; host or cells: bovine brain
protocol_summary: Farnesyltransferase inhibition (scintillation proximity assay, [3H]-FPP / biotin-K-ras peptide)
Format: biochemical, bovine
condition_summary: compound at 10^−6 M; bovine FTase, 37° C., 30 minutes
Structures can show the parent of a compound that is named as a salt.
Collected inhibition at 1 µM values appear next to each entry.
value_kind: inhibition at 1 µM (%)

INSERT INTO assay_data (molecule, measured_value) VALUES
  ('Cn1cncc1C(OCc1ccc(C#N)cn1)c1ccc(C#N)c(-c2ccccc2C(F)(F)F)c1 (stereo not drawn) [Example 251, dihydrochloride]', 99),
  ('Cn1cncc1C(c1ccc(C#N)c(-c2cccc3ccccc23)c1)S(=O)(=O)Cc1ccc(C#N)cc1 (stereo not drawn) [Example 71, hydrochloride]', 100),
  ('Cc1ccccc1-c1cc(C(OCc2ccc(F)cc2)c2cncn2C)ccc1C#N (stereo not drawn) [Example 118, hydrochloride]', 90);
